- test-system: Glutamate receptor ionotropic, AMPA (Rattus norvegicus) (UniProt P19491+P19492+P19493+P19490)
- protocol-notes: Positive allosteric modulation of AMPA receptor in embryonic rat brain cells assessed as potentiation of membrane depolarization after 3 mins by fluorescence assay relative to AMPA
- Format: cell-based
experimental-readout: max activation

[[record]]
structure_smiles_string = "CCN1CNS(=O)(=O)c2cc(C(=O)Nc3ccccc3)ccc21"
reading = "< 200%"

[[record]]
structure_smiles_string = "CCN1CNS(=O)(=O)c2cc(C(=O)OCc3ccccc3)ccc21"
reading = "< 200%"

[[record]]
structure_smiles_string = "Cc1ccccc1OC(=O)c1ccc2c(c1)S(=O)(=O)NCN2C"
reading = "410%"

[[record]]
structure_smiles_string = "COc1ccccc1OC(=O)c1ccc2c(c1)S(=O)(=O)NCN2C"
reading = "410%"

[[record]]
structure_smiles_string = "CCN1CNS(=O)(=O)c2cc(C(=O)Oc3ccccc3C)ccc21"
reading = "330%"

[[record]]
structure_smiles_string = "CCN1CNS(=O)(=O)c2cc(C(=O)Oc3ccccc3OCc3ccccc3)ccc21"
reading = "< 200%"

[[record]]
structure_smiles_string = "CN1CNS(=O)(=O)c2cc(C(=O)N(C)c3ccccc3)ccc21"
reading = "< 200%"

[[record]]
structure_smiles_string = "CCN1CNS(=O)(=O)c2cc(C(=O)Oc3cccc(C)c3)ccc21"
reading = "< 200%"

[[record]]
structure_smiles_string = "CN1CNS(=O)(=O)c2cc(C(=O)Nc3ccccc3)ccc21"
reading = "< 200%"

[[record]]
structure_smiles_string = "CN1CNS(=O)(=O)c2cc(C(=O)Oc3ccccc3OCc3ccccc3)ccc21"
reading = "< 200%"

[[record]]
structure_smiles_string = "CN1CNS(=O)(=O)c2cc(C(=O)Oc3ccccc3)ccc21"
reading = "550%"

